Target: human M4 receptor (Homo sapiens, UniProt P08173)
Construct: expressed in transfected cells
Sequence (P08173 whole entry): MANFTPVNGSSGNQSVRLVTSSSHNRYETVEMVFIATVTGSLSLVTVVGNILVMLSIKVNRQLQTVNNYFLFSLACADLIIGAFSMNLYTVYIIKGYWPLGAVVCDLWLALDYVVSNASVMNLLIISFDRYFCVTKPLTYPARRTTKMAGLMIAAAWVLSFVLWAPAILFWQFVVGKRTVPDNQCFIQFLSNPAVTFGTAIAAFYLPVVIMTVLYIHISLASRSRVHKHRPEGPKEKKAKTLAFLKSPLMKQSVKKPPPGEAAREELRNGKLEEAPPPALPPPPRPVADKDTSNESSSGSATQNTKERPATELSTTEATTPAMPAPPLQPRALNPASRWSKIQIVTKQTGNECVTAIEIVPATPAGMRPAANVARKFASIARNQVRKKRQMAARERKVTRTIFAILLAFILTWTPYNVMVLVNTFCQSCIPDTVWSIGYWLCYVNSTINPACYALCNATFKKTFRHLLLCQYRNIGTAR
Experiment: SPA GTP (GTPgS) binding curve shift assay, M4
Type: biochemical
Conditions: Emraclidine concentration 123 nM, read-out: Emax
readoutLabel: Emax (%)
# number only, unit % dropped from output

Solved cases (3 shown):
compound=CCCCCCCOc1nsnc1C1=CCCCN1C readoutlabel=Emax unitsofmeasure=% testvalue=43.9
compound="CC1OC2(CS1)CN1CCC2CC1 (stereo not shown) [cevimeline, Cevimeline, reference compound]" readoutlabel=Emax unitsofmeasure=% testvalue=28
compound=CCCCCOc1nsnc1C1=CCCCN1C readoutlabel=Emax unitsofmeasure=% testvalue=29.6

Note: attention shifts to another entry.
Answer with the recorded Emax for the compound listed here: CCCCCCOc1nsnc1C1=CCCN(C)C1 [xanomeline, reference compound]
38.1

---

Molecular target: human M3 receptor (Homo sapiens, UniProt P20309)
Construct: expressed in transfected cells
Sequence (P20309 whole entry): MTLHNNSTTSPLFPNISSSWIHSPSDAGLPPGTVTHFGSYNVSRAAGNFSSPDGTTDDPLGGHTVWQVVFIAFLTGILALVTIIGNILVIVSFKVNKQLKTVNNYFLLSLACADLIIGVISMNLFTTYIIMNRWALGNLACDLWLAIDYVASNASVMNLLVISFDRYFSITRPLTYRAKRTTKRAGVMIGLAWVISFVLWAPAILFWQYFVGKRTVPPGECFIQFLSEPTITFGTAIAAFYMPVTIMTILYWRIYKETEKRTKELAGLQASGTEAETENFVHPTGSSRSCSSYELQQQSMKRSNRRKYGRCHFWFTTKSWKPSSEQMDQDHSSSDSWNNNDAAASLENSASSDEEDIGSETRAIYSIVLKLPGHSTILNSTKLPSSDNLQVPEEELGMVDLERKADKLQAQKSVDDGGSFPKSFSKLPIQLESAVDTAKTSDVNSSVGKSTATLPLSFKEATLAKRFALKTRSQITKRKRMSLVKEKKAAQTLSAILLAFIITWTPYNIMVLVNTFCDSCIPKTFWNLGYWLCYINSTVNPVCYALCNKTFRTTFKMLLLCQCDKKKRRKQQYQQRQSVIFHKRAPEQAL
Experiment: HTRF IP-One curve shift assay, M3
Assay type: cell-based
Conditions: Emraclidine concentration 123 nM, read-out: Emax
readoutLabel: Emax
# output: numeric value plus its unit

Solved cases (3 shown):
molecule="CCCCCCOc1nsnc1C1=CCCN(C)C1 [xanomeline, reference compound]" subjectoftest="human M3 receptor (Homo sapiens, UniProt P20309)" readoutlabel=Emax testvalue=85.7%
molecule=CCCCCOc1nsnc1C1=CCCCN1C subjectoftest="human M3 receptor (Homo sapiens, UniProt P20309)" readoutlabel=Emax testvalue=50.2%
molecule="CC1OC2(CS1)CN1CCC2CC1 (stereo not shown) [cevimeline, Cevimeline, reference compound]" subjectoftest="human M3 receptor (Homo sapiens, UniProt P20309)" readoutlabel=Emax testvalue=83.8%

Note: attention shifts to another entry.
Answer with the recorded Emax for the molecule listed here: `CCCCCCCOc1nsnc1C1=CCCCN1C`
68.2%

---

Molecular target: human M5 receptor (Homo sapiens, UniProt P08912)
Construct: expressed in transfected cells
Sequence (P08912 1-532): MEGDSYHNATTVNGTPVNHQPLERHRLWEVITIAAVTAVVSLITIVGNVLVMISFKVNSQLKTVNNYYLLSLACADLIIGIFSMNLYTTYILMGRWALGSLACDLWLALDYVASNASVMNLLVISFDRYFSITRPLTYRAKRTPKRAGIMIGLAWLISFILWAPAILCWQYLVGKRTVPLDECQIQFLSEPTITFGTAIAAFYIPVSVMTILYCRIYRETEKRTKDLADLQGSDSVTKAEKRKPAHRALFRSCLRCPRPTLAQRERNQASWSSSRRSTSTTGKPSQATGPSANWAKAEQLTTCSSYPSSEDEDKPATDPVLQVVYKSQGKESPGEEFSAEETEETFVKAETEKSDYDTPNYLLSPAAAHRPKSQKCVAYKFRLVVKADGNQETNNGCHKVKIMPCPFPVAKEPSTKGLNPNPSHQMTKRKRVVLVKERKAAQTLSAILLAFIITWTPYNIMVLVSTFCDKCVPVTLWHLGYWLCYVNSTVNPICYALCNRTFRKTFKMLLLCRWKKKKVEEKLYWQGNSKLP
Assay: HTRF IP-One curve shift assay, M5
Type: cell-based
Conditions: M5; Emraclidine concentration 370 nM; read-out: Emax
readoutLabel: Emax at […] (%)
# number only, unit % dropped from output

Solved cases (3 shown):
compound="CCCCCCCOc1nsnc1C1=CCCCN1C [KTX-593]" testvalue=67.4
compound="CC1OC2(CS1)CN1CCC2CC1 (stereo not shown) [cevimeline, Cevimeline, reference compound]" testvalue=105
compound="CCCCCCOc1nsnc1C1=CCCN(C)C1 [xanomeline, reference compound]" testvalue=89

Note: attention shifts to another entry.
Answer with the recorded Emax at […] for the compound listed here: CCCCCOc1nsnc1C1=CCCCN1C [KTX-517]
62.4
